Test target: adenosine A2a receptor (A2aR) (Homo sapiens)
Construct: expressed in transfected cells; host or cells: CHO-K1
Sequence (P29274 whole entry): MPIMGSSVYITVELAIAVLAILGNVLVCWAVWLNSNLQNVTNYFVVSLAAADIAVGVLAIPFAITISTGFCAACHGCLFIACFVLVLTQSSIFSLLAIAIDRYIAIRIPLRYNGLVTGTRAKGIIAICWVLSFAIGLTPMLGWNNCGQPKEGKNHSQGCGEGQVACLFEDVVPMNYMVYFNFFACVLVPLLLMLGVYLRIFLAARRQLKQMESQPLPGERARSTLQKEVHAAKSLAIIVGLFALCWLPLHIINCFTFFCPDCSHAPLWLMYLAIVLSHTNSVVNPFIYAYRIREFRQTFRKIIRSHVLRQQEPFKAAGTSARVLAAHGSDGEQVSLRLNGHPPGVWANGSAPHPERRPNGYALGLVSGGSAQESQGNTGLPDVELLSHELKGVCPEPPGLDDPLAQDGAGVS
Test method notes: Inhibition of the adenosine A2a receptor cAMP signaling pathway in CHO-K1/A2aR cells (HTRF)
Type: cell-based
Condition details: CHO-K1/A2aR cells, cAMP, NECA 20 nM; Table 1
Please assign class 0 whenever IC50 is at or above 1 nM, and class 1 whenever it is below.

Lab note: confirm whether the reported IC50 for this molecule is below 1 nM, equality not counting. molecule: Nc1nnc(-c2cc(Cl)c3ncccc3c2)c(-c2ccccc2)n1
class 1

Report whether reported IC50 is lower than 1 nM (strictly) for Nc1nnc(-c2ccc3ccccc3c2)c(-c2ccccc2)n1 [Example 13, reference compound]
class 0

Is 1 nM strictly greater than the molecule's reported IC50? molecule: Nc1nnc(-c2cc(F)c3ncccc3c2)c(-c2ccccc2)n1
class 1

Please find the next molecule below.
Item Nc1nnc(-c2ccc3nccc(Cl)c3c2)c(-c2ccc(F)cc2)n1 : IC50 beneath 1 nM, strictly?
class 0
